Target: T1, human IL-33 (R&D Systems, #3625-IL-010/CF) (human, UniProt O95760 112-270)
T1 sequence (looked up): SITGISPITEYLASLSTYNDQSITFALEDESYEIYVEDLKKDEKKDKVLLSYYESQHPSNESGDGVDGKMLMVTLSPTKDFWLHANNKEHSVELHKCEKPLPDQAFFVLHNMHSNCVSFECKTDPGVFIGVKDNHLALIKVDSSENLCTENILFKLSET
Assay: cell-based or functional assay
PARAMETER: Ph-p38 MFI at 0.4 nM Ab (500 pM human IL-33, primary basophils) (MFI)

[
  {
    "BINDER": "H1M9566N (antibody, IgG1, V domains shown, also called RG2) VH: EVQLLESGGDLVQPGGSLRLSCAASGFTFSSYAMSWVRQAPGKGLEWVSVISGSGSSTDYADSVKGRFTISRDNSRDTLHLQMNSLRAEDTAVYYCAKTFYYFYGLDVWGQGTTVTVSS VL: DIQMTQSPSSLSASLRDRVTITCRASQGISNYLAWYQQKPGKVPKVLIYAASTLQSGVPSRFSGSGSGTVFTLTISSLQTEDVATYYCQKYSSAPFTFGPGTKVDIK",
    "RESULT": 119
  },
  {
    "BINDER": "H4H9659P (antibody, IgG4, V domains shown, also called RG7) VH: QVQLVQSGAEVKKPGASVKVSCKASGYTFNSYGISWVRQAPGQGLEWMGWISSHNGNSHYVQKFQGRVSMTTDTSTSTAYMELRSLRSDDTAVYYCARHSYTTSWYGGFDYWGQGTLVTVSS VL: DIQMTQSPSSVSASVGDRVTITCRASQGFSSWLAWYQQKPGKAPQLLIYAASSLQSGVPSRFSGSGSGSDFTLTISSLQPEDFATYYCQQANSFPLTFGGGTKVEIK",
    "RESULT": 119
  },
  {
    "BINDER": "H4H9640P (antibody, IgG4, V domains shown, also called RG6) VH: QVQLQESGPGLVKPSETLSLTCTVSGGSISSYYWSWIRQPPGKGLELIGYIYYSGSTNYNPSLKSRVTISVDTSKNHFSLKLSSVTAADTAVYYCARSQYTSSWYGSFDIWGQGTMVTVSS VL: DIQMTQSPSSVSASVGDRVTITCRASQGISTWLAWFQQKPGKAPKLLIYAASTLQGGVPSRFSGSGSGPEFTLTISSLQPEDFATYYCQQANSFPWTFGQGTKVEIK",
    "RESULT": 99
  }
]
